# System: Saccharomyces cerevisiae
# method-notes: protein stability index of tFT-peptide fusion (C-terminal peptide) (PSI (0-1 scale)); higher = more stable (slower turnover)
# assay-setup: genetic background: wild type; temperature: 30 C
Quick list: protein stability index per entry.
Please reply with the number alone, leaving off any unit.

Consider the reported protein stability index for these sequences:
seq-text | protein stability index
DPLYYVYCLHMP [NAT4 C-terminal 12 aa] | 0.643
ENASQLPHPSQK [ZIM17 C-terminal 12 aa] | 0.691
DEDDGMIIGSLW [AEP2 C-terminal 12 aa] | 0.708
RQCEDTNFGFKI [YDL242W C-terminal 12 aa] | 0.688
FVAYTTLTFKKT [YMR001C-A C-terminal 12 aa] | 0.67
NGPVNNNAHLVA [FAT3 C-terminal 12 aa] | 0.709
RFQDGTSVVSIM [SMC2 C-terminal 12 aa] | 0.681
EDSHYGNAKKVT [FPS1 C-terminal 12 aa] | 0.688
KAASLSLKSTKY [PRP5 C-terminal 12 aa] | 0.673
EKKRVLNAVCGL [YLR412C-A C-terminal 12 aa] | 0.658

Note to self: protein stability index recorded for ENAHMQSAESCN [YLR236C C-terminal 12 aa] was 0.717

Note to self: protein stability index recorded for SPIQLKDLESQI [SYS1 C-terminal 12 aa] was 0.717

Note to self: protein stability index recorded for RQEYKFKKSLLT [YKL131W C-terminal 12 aa] was 0.625

Hello, the source for this data is the supplement of paper PMC10724198, in case you need it.
